Origin of measurements: paper PMC4948680

# assay.comment: in vivo
# Parameters: species or system Swiss albino mice
# condition.label: Swiss albino, mouse, iv, 10 pmol peptide, total radioactivity, %ID/g tissue, Blood
result.type: tissue uptake at 48 h (%ID/g)
Just the number please, in %ID/g, no unit attached.

[ask] Identify measured tissue uptake at 48 h associated with CSCC[C@H](NC(=O)[C@H](Cc1c[nH]c2ccccc12)NC(=O)CNC(=O)[C@H](Cc1ccc(O)cc1)NC(=O)[C@H](C)NC(=O)[C@@H](CCC(=O)O)NC(=O)[C@@H](CCC(=O)O)NC(=O)[C@@H](CCC(=O)O)NC(=O)[C@@H](CCC(=O)O)NC(=O)[C@@H](CCC(=O)O)NC(=O)[C@@H](CCC(=O)O)NC(=O)CN1CCN(CC(=O)O)CCN(CC(=O)O)CCN(CC(=O)O)CC1)C(=O)N[C@@H](CC(=O)O)C(=O)N[C@@H](Cc1ccccc1)C(N)=O [^111In-CP04, metal not drawn]
[reply] 0.01

---

# assay.comment: in vivo
# Parameters: species or system SCID mice
# condition.label: SCID, mouse, iv, 10 pmol peptide, total radioactivity, %ID/g tissue, Heart
result.type: tissue uptake at 1 h (%ID/g)
Report only the number, with the unit %ID/g understood.

[ask] Kindly indicate its recorded tissue uptake at 1 h. Item: CSCC[C@H](NC(=O)[C@H](Cc1c[nH]c2ccccc12)NC(=O)CNC(=O)[C@H](Cc1ccc(O)cc1)NC(=O)[C@H](C)NC(=O)[C@@H](CCC(=O)O)NC(=O)[C@@H](CCC(=O)O)NC(=O)[C@@H](CCC(=O)O)NC(=O)[C@@H](CCC(=O)O)NC(=O)[C@@H](CCC(=O)O)NC(=O)[C@@H](CCC(=O)O)NC(=O)CN1CCN(CC(=O)O)CCN(CC(=O)O)CCN(CC(=O)O)CC1)C(=O)N[C@@H](CC(=O)O)C(=O)N[C@@H](Cc1ccccc1)C(N)=O [^111In-CP04, metal not drawn]
[reply] 0.24

---

# assay.comment: in vivo
# Design: species or system Swiss albino mice
# condition.label: Swiss albino, mouse, iv, 10 pmol peptide, total radioactivity, %ID/g tissue, Spleen
result.type: tissue uptake at 72 h

[ask] Return reported tissue uptake at 72 h. Input molecule: CSCC[C@H](NC(=O)[C@H](Cc1c[nH]c2ccccc12)NC(=O)CNC(=O)[C@H](Cc1ccc(O)cc1)NC(=O)[C@H](C)NC(=O)[C@@H](CCC(=O)O)NC(=O)[C@@H](CCC(=O)O)NC(=O)[C@@H](CCC(=O)O)NC(=O)[C@@H](CCC(=O)O)NC(=O)[C@@H](CCC(=O)O)NC(=O)[C@@H](CCC(=O)O)NC(=O)CN1CCN(CC(=O)O)CCN(CC(=O)O)CCN(CC(=O)O)CC1)C(=O)N[C@@H](CC(=O)O)C(=O)N[C@@H](Cc1ccccc1)C(N)=O [^111In-CP04, metal not drawn]
[reply] 0.04 %ID/g

---

# assay.comment: in vivo
# Set-up: species or system Swiss albino mice
# condition.label: Swiss albino, mouse, iv, 10 pmol peptide, total radioactivity, %ID/g tissue, Lung
result.type: tissue uptake at 0.5 h
Your answer should be a number followed by the unit of measure.

[ask] Please give the documented tissue uptake at 0.5 h of CSCC[C@H](NC(=O)[C@H](Cc1c[nH]c2ccccc12)NC(=O)CNC(=O)[C@H](Cc1ccc(O)cc1)NC(=O)[C@H](C)NC(=O)[C@@H](CCC(=O)O)NC(=O)[C@@H](CCC(=O)O)NC(=O)[C@@H](CCC(=O)O)NC(=O)[C@@H](CCC(=O)O)NC(=O)[C@@H](CCC(=O)O)NC(=O)[C@@H](CCC(=O)O)NC(=O)CN1CCN(CC(=O)O)CCN(CC(=O)O)CCN(CC(=O)O)CC1)C(=O)N[C@@H](CC(=O)O)C(=O)N[C@@H](Cc1ccccc1)C(N)=O [^111In-CP04, metal not drawn]
[reply] 1.05 %ID/g

---

# assay.comment: in vivo
# Parameters: species or system Swiss albino mice
# condition.label: Swiss albino, mouse, iv, 10 pmol peptide, total radioactivity, %ID/g tissue, Muscle
result.type: tissue uptake at 48 h

[ask] Return tissue uptake at 48 h (reported value) for this molecule: CSCC[C@H](NC(=O)[C@H](Cc1c[nH]c2ccccc12)NC(=O)CNC(=O)[C@H](Cc1ccc(O)cc1)NC(=O)[C@H](C)NC(=O)[C@@H](CCC(=O)O)NC(=O)[C@@H](CCC(=O)O)NC(=O)[C@@H](CCC(=O)O)NC(=O)[C@@H](CCC(=O)O)NC(=O)[C@@H](CCC(=O)O)NC(=O)[C@@H](CCC(=O)O)NC(=O)CN1CCN(CC(=O)O)CCN(CC(=O)O)CCN(CC(=O)O)CC1)C(=O)N[C@@H](CC(=O)O)C(=O)N[C@@H](Cc1ccccc1)C(N)=O [^111In-CP04, metal not drawn]
[reply] 0.03 %ID/g

---

# assay.comment: in vivo
# Parameters: species or system SCID mice
# condition.label: SCID, mouse, iv, 10 pmol peptide, total radioactivity, %ID/g tissue, Liver
result.type: tissue uptake at 1 h (%ID/g)
Just the number please, in %ID/g, no unit attached.

[ask] Provide only the value of recorded tissue uptake at 1 h for CSCC[C@H](NC(=O)[C@H](Cc1c[nH]c2ccccc12)NC(=O)CNC(=O)[C@H](Cc1ccc(O)cc1)NC(=O)[C@H](C)NC(=O)[C@@H](CCC(=O)O)NC(=O)[C@@H](CCC(=O)O)NC(=O)[C@@H](CCC(=O)O)NC(=O)[C@@H](CCC(=O)O)NC(=O)[C@@H](CCC(=O)O)NC(=O)[C@@H](CCC(=O)O)NC(=O)CN1CCN(CC(=O)O)CCN(CC(=O)O)CCN(CC(=O)O)CC1)C(=O)N[C@@H](CC(=O)O)C(=O)N[C@@H](Cc1ccccc1)C(N)=O [^111In-CP04, metal not drawn]
[reply] 0.38

---

# assay.comment: in vivo
# Parameters: species or system SCID mice
# condition.label: SCID, mouse, iv, 10 pmol peptide, total radioactivity, %ID/g tissue, Femur
result.type: tissue uptake at 1 h (%ID/g)
Just the number please, in %ID/g, no unit attached.

[ask] Item CSCC[C@H](NC(=O)[C@H](Cc1c[nH]c2ccccc12)NC(=O)CNC(=O)[C@H](Cc1ccc(O)cc1)NC(=O)[C@H](C)NC(=O)[C@@H](CCC(=O)O)NC(=O)[C@@H](CCC(=O)O)NC(=O)[C@@H](CCC(=O)O)NC(=O)[C@@H](CCC(=O)O)NC(=O)[C@@H](CCC(=O)O)NC(=O)[C@@H](CCC(=O)O)NC(=O)CN1CCN(CC(=O)O)CCN(CC(=O)O)CCN(CC(=O)O)CC1)C(=O)N[C@@H](CC(=O)O)C(=O)N[C@@H](Cc1ccccc1)C(N)=O [^111In-CP04, metal not drawn] : provide tissue uptake at 1 h
[reply] 0.96

---

# assay.comment: in vivo
# Set-up: species or system Swiss albino mice
# condition.label: Swiss albino, mouse, iv, 10 pmol peptide, total radioactivity, %ID/g tissue, Femur
# Procedure: Samples of blood and tissues of interest were excised, weighted and counted for radioactivity in the gamma counter (automated well-type multi-sample gamma counter; NaI(Tl) 3'' crystal, Canberra Packard Auto-Gamma 5000 series instrument). Data was calculated as percent injected dose per gramtissue (%ID/g) with the aid of suitable standards of the injected dose. […] The number of exponentials in the fitted curve was analysed according to the […] […]
result.type: tissue uptake at 4 h (%ID/g)
State just the number; it will be interpreted in %ID/g.

[ask] Specify tissue uptake at 4 h for CSCC[C@H](NC(=O)[C@H](Cc1c[nH]c2ccccc12)NC(=O)CNC(=O)[C@H](Cc1ccc(O)cc1)NC(=O)[C@H](C)NC(=O)[C@@H](CCC(=O)O)NC(=O)[C@@H](CCC(=O)O)NC(=O)[C@@H](CCC(=O)O)NC(=O)[C@@H](CCC(=O)O)NC(=O)[C@@H](CCC(=O)O)NC(=O)[C@@H](CCC(=O)O)NC(=O)CN1CCN(CC(=O)O)CCN(CC(=O)O)CCN(CC(=O)O)CC1)C(=O)N[C@@H](CC(=O)O)C(=O)N[C@@H](Cc1ccccc1)C(N)=O [^111In-CP04, metal not drawn] and stop.
[reply] 0.96

---

# assay.comment: in vivo
# Parameters: species or system Swiss albino mice
# condition.label: Swiss albino, mouse, iv, 10 pmol peptide, total radioactivity, %ID/g tissue, Liver
result.type: tissue uptake at 1 h (%ID/g)
Report only the number, with the unit %ID/g understood.

[ask] Report tissue uptake at 1 h, nothing else, for this molecule: CSCC[C@H](NC(=O)[C@H](Cc1c[nH]c2ccccc12)NC(=O)CNC(=O)[C@H](Cc1ccc(O)cc1)NC(=O)[C@H](C)NC(=O)[C@@H](CCC(=O)O)NC(=O)[C@@H](CCC(=O)O)NC(=O)[C@@H](CCC(=O)O)NC(=O)[C@@H](CCC(=O)O)NC(=O)[C@@H](CCC(=O)O)NC(=O)[C@@H](CCC(=O)O)NC(=O)CN1CCN(CC(=O)O)CCN(CC(=O)O)CCN(CC(=O)O)CC1)C(=O)N[C@@H](CC(=O)O)C(=O)N[C@@H](Cc1ccccc1)C(N)=O [^111In-CP04, metal not drawn]
[reply] 0.32
